- Species: Rattus norvegicus
- experiment description: Open TG-GATES - Regimen: Single
- Assay type: toxicity, organism-based, Sprague-Dawley
- Set-up: regimen Single, gender Male, age 6 weeks
- settings: in vivo, po, 100 mg/kg, 9 h, tissue Blood, route gavage, dose level Low
Property: RBC; scope: individual molecules
value type: RBC

- molecule: "CCc1cc(C(N)=S)ccn1 [ETHIONAMIDE]"
  value observed: "655.2 x10_4/ul"
- molecule: "C[C@H](CS)C(=O)N1CCC[C@H]1C(=O)O [CAPTOPRIL]"
  value observed: "591.8 x10_4/ul"
- molecule: "O=C(O)c1cc(/N=N/c2ccc(S(=O)(=O)Nc3ccccn3)cc2)ccc1O [SULFASALAZINE]"
  value observed: "616.6 x10_4/ul"
- molecule: "Clc1ccccc1CN1CCc2sccc2C1 [TICLOPIDINE]"
  value observed: "621.6 x10_4/ul"
- molecule: "O=C(O)c1cn(C2CC2)c2cc(N3CCNCC3)c(F)cc2c1=O [CIPROFLOXACIN]"
  value observed: "605.8 x10_4/ul"

====

- Species: Rattus norvegicus
- experiment description: Open TG-GATES - Regimen: Single
- Type: toxicity, organism-based, Sprague-Dawley
- Set-up: regimen Single, gender Male, age 6 weeks
- settings: in vivo, po, 100 mg/kg, 24 h, tissue Blood, route gavage, dose level Low
Labelling field: enter TRUE if recorded Ht is less than 40%. Enter FALSE if it equals or exceeds that cut-off.

- molecule: "CCc1cc(C(N)=S)ccn1 [ETHIONAMIDE]"
  label value: "FALSE"
- molecule: "C[C@H](CS)C(=O)N1CCC[C@H]1C(=O)O [CAPTOPRIL]"
  label value: "TRUE"
- molecule: "O=C(O)c1cc(/N=N/c2ccc(S(=O)(=O)Nc3ccccn3)cc2)ccc1O [SULFASALAZINE]"
  label value: "TRUE"
- molecule: "Clc1ccccc1CN1CCc2sccc2C1 [TICLOPIDINE]"
  label value: "TRUE"

====

- Species: Rattus norvegicus
- experiment description: Open TG-GATES - Regimen: Single
- Assay type: toxicity, organism-based, Sprague-Dawley
- Design: regimen Single, gender Male, age 6 weeks
- settings: in vivo, po, 0 mg/kg, 24 h, tissue Blood, route gavage, dose level Control
Mark T for Fbg under 300 mg/dL, F if at or over.

- compound: "O=C(O)c1cc(/N=N/c2ccc(S(=O)(=O)Nc3ccccn3)cc2)ccc1O [SULFASALAZINE]"
  label value: "T"
- compound: "Clc1ccccc1CN1CCc2sccc2C1 [TICLOPIDINE]"
  label value: "T"
- compound: "NC(=O)N/N=C/c1ccc([N+](=O)[O-])o1 [NITROFURAZONE]"
  label value: "T"
- compound: "COc1ccc(Cc2nccc3cc(OC)c(OC)cc23)cc1OC [PAPAVERINE]"
  label value: "F"
- compound: "CN(C)CCC=C1c2ccccc2CCc2ccccc21 [AMITRIPTYLINE]"
  label value: "T"

====

- Species on record: Rattus norvegicus
- experiment description: Open TG-GATES - Regimen: Single
- Format: toxicity, organism-based, Sprague-Dawley
- Design: regimen Single, gender Male, age 6 weeks
- settings: in vivo, po, 1000 mg/kg, 24 h, tissue Blood, route gavage, dose level High
Each entry below lists one item and its recorded Ht value.

- compound: "C[C@H](CS)C(=O)N1CCC[C@H]1C(=O)O [CAPTOPRIL]"
  reading unit: "%"
  Ht: 38.5
- compound: "CCc1cc(C(N)=S)ccn1 [ETHIONAMIDE]"
  reading unit: "%"
  Ht: 45.1
- compound: "O=C(O)c1cc(/N=N/c2ccc(S(=O)(=O)Nc3ccccn3)cc2)ccc1O [SULFASALAZINE]"
  reading unit: "%"
  Ht: 39.4
- compound: "Clc1ccccc1CN1CCc2sccc2C1 [TICLOPIDINE]"
  reading unit: "%"
  Ht: 38.9
- compound: "O=C(O)c1cn(C2CC2)c2cc(N3CCNCC3)c(F)cc2c1=O [CIPROFLOXACIN]"
  reading unit: "%"
  Ht: 40.1

====

- Species: Rattus norvegicus
- experiment description: Open TG-GATES - Regimen: Daily Repeat
- Type: toxicity, organism-based, Sprague-Dawley
- Design: regimen Daily Repeat, gender Male, age 6 weeks
- settings: in vivo, po, 0 mg/kg, 72 h, tissue Blood, route gavage, dose level Control, time 3 day

- molecule: "Cn1c(=O)c2[nH]cnc2n(C)c1=O.O"
  reading unit: "%"
  Ht: 39.5
- molecule: "CC(=O)Oc1ccccc1C(=O)O"
  reading unit: "%"
  Ht: 38.5
- molecule: "CCc1cc(C(N)=S)ccn1 [ETHIONAMIDE]"
  reading unit: "%"
  Ht: 38.9
- molecule: "NC(=O)N/N=C/c1ccc([N+](=O)[O-])o1"
  reading unit: "%"
  Ht: 39.6
- molecule: "CCCC(CCC)C(=O)O"
  reading unit: "%"
  Ht: 37.7
- molecule: "CSc1ccc2c(c1)N(CCC1CCCCN1C)c1ccccc1S2 (stereo unspecified)"
  reading unit: "%"
  Ht: 40.7

====

- Organism: Rattus norvegicus
- experiment description: Open TG-GATES - Regimen: Single
- Assay type: toxicity, organism-based, Sprague-Dawley
- Parameters: regimen Single, gender Male, age 6 weeks
- settings: in vivo, po, 0 mg/kg, 6 h, tissue Blood, route gavage, dose level Control

- molecule: "CC(=O)Oc1ccccc1C(=O)O"
  Eos (%): 0.8
- molecule: "COc1ccc(Cc2nccc3cc(OC)c(OC)cc23)cc1OC"
  Eos (%): 0.6
- molecule: "CN(C)CCC=C1c2ccccc2CCc2ccccc21"
  Eos (%): 0.8
- molecule: "NC(=O)N1c2ccccc2C=Cc2ccccc21 [CARBAMAZEPINE]"
  Eos (%): 1
- molecule: "NC(=O)N/N=C/c1ccc([N+](=O)[O-])o1"
  Eos (%): 0.6
- molecule: "Clc1ccccc1CN1CCc2sccc2C1"
  Eos (%): 1
- molecule: "O=C(O)c1cc(/N=N/c2ccc(S(=O)(=O)Nc3ccccn3)cc2)ccc1O"
  Eos (%): 1
- molecule: "COc1ccc2c(c1)c(CC(=O)O)c(C)n2C(=O)c1ccc(Cl)cc1"
  Eos (%): 0.8
- molecule: "C[C@H](CS)C(=O)N1CCC[C@H]1C(=O)O"
  Eos (%): 1.2
- molecule: "Cn1c(=O)c2[nH]cnc2n(C)c1=O.O"
  Eos (%): 0.6

====

- Species on record: Rattus norvegicus
- experiment description: Open TG-GATES - Regimen: Daily Repeat
- Format: toxicity, organism-based, Sprague-Dawley
- Set-up: regimen Daily Repeat, gender Male, age 6 weeks
- settings: in vivo, po, 0 mg/kg, […], tissue Plasma, route gavage, dose level Control, time 7 day

- compound: "CN(C)CCC=C1c2ccccc2CCc2ccccc21"
  CRE / mg/dL: 0.2
- compound: "CC(=O)Oc1ccccc1C(=O)O"
  CRE / mg/dL: 0.4
- compound: "COc1ccc2c(c1)c(CC(=O)O)c(C)n2C(=O)c1ccc(Cl)cc1"
  CRE / mg/dL: 0.5
- compound: "CCc1cc(C(N)=S)ccn1 [ETHIONAMIDE]"
  CRE / mg/dL: 0.4
- compound: "COc1ccc(Cc2nccc3cc(OC)c(OC)cc23)cc1OC"
  CRE / mg/dL: 0.2
- compound: "CSc1ccc2c(c1)N(CCC1CCCCN1C)c1ccccc1S2 (stereo not given)"
  CRE / mg/dL: 0.5
- compound: "Clc1ccccc1CN1CCc2sccc2C1"
  CRE / mg/dL: 0.4
- compound: "CCCC(CCC)C(=O)O"
  CRE / mg/dL: 0.4
- compound: "O=C(O)c1cn(C2CC2)c2cc(N3CCNCC3)c(F)cc2c1=O"
  CRE / mg/dL: 0.5
- compound: "NC(=O)N/N=C/c1ccc([N+](=O)[O-])o1"
  CRE / mg/dL: 0.2
- compound: "C[C@H](CS)C(=O)N1CCC[C@H]1C(=O)O"
  CRE / mg/dL: 0.6
- compound: "NC(=O)N1c2ccccc2C=Cc2ccccc21 [CARBAMAZEPINE]"
  CRE / mg/dL: 0.4
- compound: "O=C(O)c1cc(/N=N/c2ccc(S(=O)(=O)Nc3ccccn3)cc2)ccc1O"
  CRE / mg/dL: 0.4
- compound: "Cn1c(=O)c2[nH]cnc2n(C)c1=O.O"
  CRE / mg/dL: 0.2
- compound: "CO[C@H]1/C=C/O[C@@]2(C)Oc3c(C)c(O)c4c(O)c(c(/C=N/N5CCN(C)CC5)c(O)c4c3C2=O)NC(=O)/C(C)=C\\C=C\\[C@H](C)[C@H](O)[C@@H](C)[C@@H](O)[C@@H](C)[C@H](OC(C)=O)[C@@H]1C"
  CRE / mg/dL: 0.6
